Experiment: probe aInhba binding on compound microarray – biochemical, small-molecule microarray, 635/667 nm fluorescence, primary screen (AID 1148);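 further: score merges 667nm spot fluorescence with signal-to-noise for antibody binding to printed compounds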
Conditions: higher = more signal
Property: composite z-score
Please respond with just the number, no unit label.

Use the examples below as a reference point.
Compound: CC(C)(C)OC(=O)CC[C@]1(C(=O)NCC(O)CO)N=C(c2ccc(OCCCO)cc2)O[C@H]1c1ccccc1CN=[N+]=[N-] (stereo not given in full)
Property: composite z-score
Quantitative readout: 0.496
--
Compound: Cc1ccc(N2C(=O)c3ccccc3[C@](C)(C(=O)NCCN3CCOCC3)[C@@H]2c2ccc(CO)cc2)nc1
Property: composite z-score
Quantitative readout: -0.211
--
Compound: CCN(CC)c1ccc(N2CC=CC34O[C@@H]5C=CCOC(=O)[C@@H]5[C@H]3C(=O)N(CCCCCO)[C@@H]4C2=O)cc1 (stereo not given in full)
Property: composite z-score
Quantitative readout: -0.186
--
Compound: CCOC(=O)C[C@H]1[C@H](OC(=O)c2cc3ccccc3oc2=O)[C@@H](NC(=O)c2ccc3ccccc3c2)c2cc(OCCCO)ccc2N1C(=O)c1ccccc1
Property: composite z-score
Quantitative readout: -0.0405
--
Compound: C=CC[C@@]1(C(=O)NCc2ccccc2)N=C(c2ccc(OCCCO)cc2)O[C@@H]1c1ccccc1CN=[N+]=[N-]
Property: composite z-score
Quantitative readout: 0.122
--
Compound: O=C(NCC(O)CO)[C@]1(CCS(=O)(=O)c2ccccc2)N=C(c2ccc(OCCCO)cc2)O[C@@H]1c1ccccc1 (stereo not given in full)
Property: composite z-score
Quantitative readout: -0.0567
--
Compound: O=C1c2ccccc2[C@@]2(Cc3ccccc3N(Cc3ccccc3)C2=O)[C@H](c2ccc(CO)cc2)N1Cc1ccccc1C(F)(F)F
Property: composite z-score
Quantitative readout: -0.128
--
Compound: C=C(/C(=C/C[C@@H](OC(C)=O)c1ccc(CO)o1)c1cnc2ccccc2c1)C(C)C
Property: composite z-score
Quantitative readout: -0.0448
--
Compound: CCOC(=O)C1=C[C@@H](C(C)(C)C)N(S(=O)(=O)c2ccc(C)cc2)[C@H]1c1ccc(Cl)c(Cl)c1
Property: composite z-score
Quantitative readout: 0.196

Now, please, on to the next compound.
So what's the measured composite z-score for this one? COCCOC(=O)N1C(=O)[C@@]2(c3ccccc31)[C@H](C(=O)N1CCCCCCC1)[C@H]1C(=O)O[C@H](c3ccccc3)[C@H](c3ccccc3)N1[C@@H]2c1ccccc1OCCO
1.76

====

Tested on: Human papillomavirus type 1a E7 protein (residues 1-88)
Experiment: HPV1a E7 small-molecule binders, primary screen, biochemical, small-molecule microarray, residues 1-88, 635 nm (AID 1129)
Settings: small-molecule microarray binding, fluorescence 635 nm; higher = more signal
Note to self: values exactly at -0.2 are criterion met. So composite z-score at or above -0.2 is criterion met, below is criterion not met.

Some entries whose results are on file:
Chemical structure: O=S(=O)(NCCCO)c1ccc(Br)cc1
Label value: criterion met
--
Chemical structure: Cc1ccccc1/C=C/C=O
Label value: criterion not met
--
Chemical structure: COCCOC(=O)N1C(=O)[C@@]2(c3cc(C#CC4(O)CCCCCC4)ccc31)[C@H](c1ccc(O)cc1)N1[C@H](c3ccccc3)[C@H](c3ccccc3)OC(=O)[C@H]1[C@@H]2C(=O)N1CCc2cc(OC)c(OC)cc2C1
Label value: criterion met
--
Chemical structure: CC(C)(C)OC(=O)CC[C@@]1(C(N)=O)N=C(c2ccc(OCCCO)cc2)O[C@@H]1c1ccccc1N=[N+]=[N-]
Label value: criterion met
--
Chemical structure: COc1ccc([Si](C)(C)[C@@H]2[C@@H](CCO)O[C@]3(C(=O)N(Cc4ccc(N5C(=O)c6cccc7cccc5c67)cc4)c4ccccc43)[C@H]2C)cc1
Label value: criterion not met

Then there is this compound:
Confirm if composite z-score reported for the compound Cc1ccc(S[C@]2(C(=O)NCCCN(C)C)CC(=O)N(C(C)C)[C@@H]2c2ccc(CO)cc2I)cc1 is -0.2 or above.
criterion not met
